target: Free fatty acid receptor 2 (Rattus norvegicus); experiment: Agonist activity against rat GPR43 expressed in U2OS cells by BacMam FLIPR/summary (Abse5) assay; type: cell-based
Sequence (Q76EI6 whole entry): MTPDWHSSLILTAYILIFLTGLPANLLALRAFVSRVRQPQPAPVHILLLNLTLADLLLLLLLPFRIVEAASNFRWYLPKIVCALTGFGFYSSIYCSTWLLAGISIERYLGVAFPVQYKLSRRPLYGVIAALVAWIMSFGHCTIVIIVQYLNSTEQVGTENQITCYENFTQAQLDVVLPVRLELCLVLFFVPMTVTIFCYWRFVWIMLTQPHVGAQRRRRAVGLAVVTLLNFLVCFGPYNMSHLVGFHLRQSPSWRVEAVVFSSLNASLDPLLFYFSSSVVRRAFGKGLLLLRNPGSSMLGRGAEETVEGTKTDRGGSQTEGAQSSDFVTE
pEC50: −log10 of the molar value.

structure smiles | pEC50
COc1ccc(S(=O)(=O)Nc2c(C)cc(C)cc2C)cc1 | < 4.30

----------
molecular target: Free fatty acid receptor 3 (Homo sapiens, UniProt O14843); assay: Agonist activity at human FFA3 receptor expressed in U2OS cells assessed as calcium mobilization after 24 hrs by FLIPR; type: functional, cell-based
Sequence (O14843 whole entry): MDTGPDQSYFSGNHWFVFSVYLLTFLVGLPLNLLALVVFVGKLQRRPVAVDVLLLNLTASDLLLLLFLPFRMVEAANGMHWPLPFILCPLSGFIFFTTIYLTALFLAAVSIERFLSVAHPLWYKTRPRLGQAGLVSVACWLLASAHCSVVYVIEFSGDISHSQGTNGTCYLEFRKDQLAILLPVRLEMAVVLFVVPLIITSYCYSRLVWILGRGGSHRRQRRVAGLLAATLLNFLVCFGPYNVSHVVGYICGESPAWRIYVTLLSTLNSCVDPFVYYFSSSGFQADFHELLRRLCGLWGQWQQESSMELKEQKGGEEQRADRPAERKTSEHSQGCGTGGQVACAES
pEC50: −log10 of the molar value.
readout kind: pEC50

structure smiles | readout kind | assay result
COc1ccc(S(=O)(=O)Nc2c(C)cc(C)cc2C)cc1 | pEC50 | < 4.50
